This collection of values is drawn from patent US20240239892A1.

Biological target: T1, PD-1 (analyte of the SPR assay of Example 3) (human, UniProt Q15116 21-167, limits assumed)
T1 construct: also called human PD-1
T1 sequence (Q15116 21-167 limits assumed): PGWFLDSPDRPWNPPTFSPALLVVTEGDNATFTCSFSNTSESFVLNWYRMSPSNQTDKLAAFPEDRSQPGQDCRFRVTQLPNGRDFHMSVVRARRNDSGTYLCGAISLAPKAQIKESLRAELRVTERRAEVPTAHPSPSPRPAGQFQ
Assay: SPR (Biacore 8K), antibody captured by anti-human Fc, PD-1 as analyte
Protocol: Anti-human Fc gamma specific antibody (Jackson ImmunoResearch #109-005-098) was immobilized onto the sensor chip using amine coupling method. […] After equilibration, PD-1 was injected for 200 seconds (association phase) followed by the injection of running buffer for 600s (dissociation phase). Responses of reference flow cell (flow cell 1) were subtracted from those of humanized antibodies flow cells during each cycle. […] The process was repeated until all antibodies are analyzed. […]
Reported values of Kd for individual entries
experimental.readout: Kd (nM)

binder="VH7 + VL1 (antibody, human IgG1, kappa, V domains shown, Humanized full-length IgG expressed in HEK293; also called HC2 + LC1) VH: EVQLVESGGGLVQPGGSLRLSCAASGFTFSSYGMSWVRQAPGKGLEWVAIISGGGRDIYYLDSVKGRFTISRDNSKNNLYLQMNSLRAEDTAVYYCSSPIYDAYSFAYWGQGTLVTVSS VL: EIVMTQSPATLSVSPGERATLSCRASQTISNNLHWYQQKPGQAPRLLIYYASQSISGIPARFSGSGSGTEFTLTISSLQSEDFAVYYCQQSYSWPLTFGGGTKLEIKR" measured_result=3.04
binder="VH6 + VL6 (antibody, human IgG1, kappa, V domains shown, Humanized full-length IgG expressed in HEK293; also called HC1 + LC2) VH: EVQLVESGGGLVQPGGSLRLSCAASGFTFSSYGMSWVRQAPGKRLEWVAIISGGGRDIYYLDSVKGRFTISRDNSKNTLYLQMNSLRAEDTAVYYCSSPIYDAYSFAYWGQGTLVTVSS VL: EIVLTQSPATLSVSPGERATLSCRASQTISNNLHWYHQKPGQAPRLLIKYASQSISGIPSRFSGSGSGTDFTLTISSLQSEDFAVYFCQQSYSWPLTFGGGTKLEIKR" measured_result=0.812
binder="Chimeric VH + VL (antibody, human IgG1, kappa, V domains shown, also called Parental mouse VH+VL combined with human Fc; parental antibody) VH: EVKLVESGGGLVKPGGSLKLSCAASGFTFSSYGMSWVRQTPEKRLEWVAIISGGGRDIYYLDSVKGRFTISRDNAKNNLYLQMSSLRSEDTAFYYCSSPIYDAYSFAYWGQGTLVTVSA VL: DIVLVQSPATLSVTPGDSVSLSCRASQTISNNLHWYHQKSHESPRLLIKYASQSISGIPSRFSGSGSGTDFTLSINSVETEDFGMYFCQQSYSWPLTFGAGTNLELKR" measured_result=0.787
binder="VH6 + VL1 (antibody, human IgG1, kappa, V domains shown, Humanized full-length IgG expressed in HEK293; For SPR it was captured from culture medium through its Fc; also called HC1 + LC1) VH: EVQLVESGGGLVQPGGSLRLSCAASGFTFSSYGMSWVRQAPGKRLEWVAIISGGGRDIYYLDSVKGRFTISRDNSKNTLYLQMNSLRAEDTAVYYCSSPIYDAYSFAYWGQGTLVTVSS VL: EIVMTQSPATLSVSPGERATLSCRASQTISNNLHWYQQKPGQAPRLLIYYASQSISGIPARFSGSGSGTEFTLTISSLQSEDFAVYYCQQSYSWPLTFGGGTKLEIKR" measured_result=3.57
